src = patent US11964941B2

system: A2058 melanoma cells; test: MTS cell viability, A2058 melanoma cells; format: cell-based, human; conditions: Homo sapiens, 48 h, read-out: IC50 for 50% inhibition of viability
assay_endpoint: IC50 (µM)
Give bare numbers, in µM.

Entry CNCCO/N=C1/C(=C2/C(=O)Nc3ccc(Br)cc32)Nc2ccccc21 [5IN-1NH1] ; IC50 = 0.0772

---

target: BRAF (Homo sapiens, UniProt P15056); assay: Kinase profiling in vitro, BRAF; details: recombinant BRAF, 33P-ATP, 120 min
Sequence (P15056 whole entry, species assumed): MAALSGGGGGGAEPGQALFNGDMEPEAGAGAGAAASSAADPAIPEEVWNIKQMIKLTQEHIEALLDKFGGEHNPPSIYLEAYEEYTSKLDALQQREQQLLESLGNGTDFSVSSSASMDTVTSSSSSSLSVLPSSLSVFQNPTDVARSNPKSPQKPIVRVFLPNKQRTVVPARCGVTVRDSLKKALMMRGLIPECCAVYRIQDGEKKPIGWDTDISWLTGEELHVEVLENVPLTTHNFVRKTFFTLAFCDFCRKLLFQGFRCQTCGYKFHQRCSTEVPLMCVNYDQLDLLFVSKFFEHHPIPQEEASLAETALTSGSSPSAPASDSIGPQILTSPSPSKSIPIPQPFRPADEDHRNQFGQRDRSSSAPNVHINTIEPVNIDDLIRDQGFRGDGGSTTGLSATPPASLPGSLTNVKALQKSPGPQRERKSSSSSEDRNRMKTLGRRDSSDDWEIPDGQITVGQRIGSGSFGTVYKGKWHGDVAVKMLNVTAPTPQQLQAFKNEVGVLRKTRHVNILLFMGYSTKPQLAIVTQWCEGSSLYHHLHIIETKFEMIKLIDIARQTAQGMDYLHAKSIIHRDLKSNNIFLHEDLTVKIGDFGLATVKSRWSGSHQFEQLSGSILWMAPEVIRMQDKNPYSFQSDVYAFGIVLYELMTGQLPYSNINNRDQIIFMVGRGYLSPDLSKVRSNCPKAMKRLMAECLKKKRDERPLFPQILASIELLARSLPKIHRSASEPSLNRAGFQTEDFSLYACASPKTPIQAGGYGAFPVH
assay_endpoint: IC50 (µM)
Give bare numbers, in µM.

Record summary for CNCCO/N=C1/C(=C2/C(=O)Nc3ccc(Br)cc32)Nc2ccccc21 [5IN-1NH1s] : reported IC50 = 7.41
